# target-under-test: CXCR7 (Homo sapiens, UniProt P25106)
# Sequence (P25106 whole entry, species assumed): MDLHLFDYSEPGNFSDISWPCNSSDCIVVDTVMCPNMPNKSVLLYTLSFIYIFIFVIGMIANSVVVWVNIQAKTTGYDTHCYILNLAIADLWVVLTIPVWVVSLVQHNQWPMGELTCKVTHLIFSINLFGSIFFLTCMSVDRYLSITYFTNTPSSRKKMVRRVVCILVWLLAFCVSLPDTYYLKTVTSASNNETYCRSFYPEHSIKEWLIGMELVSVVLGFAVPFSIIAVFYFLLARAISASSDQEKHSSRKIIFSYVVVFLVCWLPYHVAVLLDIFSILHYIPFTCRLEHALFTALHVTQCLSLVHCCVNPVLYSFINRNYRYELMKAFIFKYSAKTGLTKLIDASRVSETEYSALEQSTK
# protocol-notes: Compound 1 selectivity panel, buffer IC50
# test-conditions: Receptor CXCR7
experimental-endpoint: IC50

Check CXCR7 (Homo sapiens, UniProt P25106) data and give IC50 for C[C@@H](Nc1cc(C2CCN([C@H]3CCCN(CCC(=O)O)C3)CC2)ccc1Cl)c1ccc(Cl)cc1Cl [Compound 1] .
> 10 µM

###

# target-under-test: Duffy (Homo sapiens, UniProt Q16570)
# Sequence (Q16570 1-336): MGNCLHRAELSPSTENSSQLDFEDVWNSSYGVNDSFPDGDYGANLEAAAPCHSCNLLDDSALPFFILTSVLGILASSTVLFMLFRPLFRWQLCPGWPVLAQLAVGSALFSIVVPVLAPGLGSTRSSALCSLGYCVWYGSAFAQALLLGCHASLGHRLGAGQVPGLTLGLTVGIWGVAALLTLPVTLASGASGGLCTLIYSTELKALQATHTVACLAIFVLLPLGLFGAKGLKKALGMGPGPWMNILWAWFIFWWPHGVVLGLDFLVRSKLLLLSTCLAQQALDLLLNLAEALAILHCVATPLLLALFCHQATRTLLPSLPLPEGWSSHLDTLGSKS
# protocol-notes: Compound 1 selectivity panel, buffer IC50
# test-conditions: Receptor Duffy
# Experimental: The selectivity of Compound 1 was tested by determining the IC50 value against a diverse panel of receptors, enzymes, and ion channels. […] See, Table 1.
experimental-endpoint: IC50

Indicate its recorded IC50; the molecule in question is C[C@@H](Nc1cc(C2CCN([C@H]3CCCN(CCC(=O)O)C3)CC2)ccc1Cl)c1ccc(Cl)cc1Cl
> 10 µM
